- Test system: Human immunodeficiency virus 1
- runDescription: Selectivity index is the ratio of CC50 to IC50 against HIV-1 nevirapine resistant strain
- Type: functional
endpoint: SI

Past entries and their recorded results:
1. CCc1c(C)[nH]c(=O)c(N(C)C)c1Cc1cc(C)cc(C)c1
>25
2. CCc1c(C)nc(O)c(N)c1C(=O)c1cc(C)cc(C)c1
>7
3. CCc1c(C)[nH]c(=O)c(NC=O)c1Cc1cc(C)cc(C)c1
>3

# evaluate next
Q) Request - read-out SI | tested on Human immunodeficiency virus 1 | molecule CCc1c(C)nc(O)c(N)c1C(O)c1cc(C)cc(C)c1 (centres undefined)
A) >2
